So I've got a bunch of compounds here, and I need their selectivity ratio values.
assay: Therapeutic index (TI) determined as IC50 of vero cells to that of EC50; assay type: cell-based; details: plasmodium falciparum, read-out: TI
Provide a numeric answer; units are not to be included.

IN: Provide selectivity ratio value for the following compound: CCN(CC)C(=S)SC(CC1C(=O)O[C@@H]2O[C@]3(C)CC[C@H]4[C@H](C)CC[C@@H]1C24OO3)SC(=S)N(CC)CC (some centres not stated)
OUT: 3.5

IN: Provide selectivity ratio value for the following compound: `C[C@@H]1CC[C@H]2[C@@H](Cc3ccc(F)cc3)C(=O)O[C@@H]3O[C@]4(C)CC[C@@H]1[C@]32OO4`
OUT: 1.9

IN: Provide selectivity ratio value for the following compound: `C[C@@H]1CC[C@H]2[C@H](CCCCCCC[C@H]3C(=O)O[C@@H]4O[C@@]5(C)CC[C@H]6[C@H](C)CC[C@@H]3[C@@]46OO5)C(=O)O[C@@H]3O[C@@]4(C)CC[C@@H]1[C@]32OO4`
OUT: 3.1
